MEASURED ON: FZD2 cysteine-rich domain (CRD), MYC-tagged and GPI-anchored on CHO cells (human, UniProt Q14332 35-161)
PROCEDURE SUMMARY: immunofluorescence, CHO-CRD cells
VALUE KIND: binding result

{"columns": ["BINDER", "VALUE KIND", "OBSERVED RESULT"],
 "data": [
  ["Fab-2910 (Fab, V domains shown, Fab) VH: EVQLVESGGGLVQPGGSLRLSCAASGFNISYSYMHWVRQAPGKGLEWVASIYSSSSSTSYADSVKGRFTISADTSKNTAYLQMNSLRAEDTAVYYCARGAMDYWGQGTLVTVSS VL: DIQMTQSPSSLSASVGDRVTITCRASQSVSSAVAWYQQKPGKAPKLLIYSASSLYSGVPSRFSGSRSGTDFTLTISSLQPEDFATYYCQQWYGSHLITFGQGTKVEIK", "binding result", "no binding"],
  ["Fab-2902 (Fab, V domains shown, Fab; also called Fv-2902) VH: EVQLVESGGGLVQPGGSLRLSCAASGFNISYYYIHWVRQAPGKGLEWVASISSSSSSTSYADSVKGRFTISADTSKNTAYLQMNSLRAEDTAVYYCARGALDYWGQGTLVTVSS VL: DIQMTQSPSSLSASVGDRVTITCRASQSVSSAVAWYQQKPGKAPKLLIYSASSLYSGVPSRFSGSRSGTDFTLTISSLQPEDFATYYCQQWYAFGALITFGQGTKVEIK", "binding result", "no binding"]
]}

These entries and their values trace back to patent US20210253718A1.
